Source listed as paper PMC5540273.

- Tested on: IRAK1;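 further: KINOMEscan kinase panel screen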
- measurementConditions: concentration: 1 μM, replicates: in singlicate; n = 1
readoutName: %Inh (%)

INSERT INTO assay_data (compound, readoutname, scaleunit, measvalue) VALUES
  ('Cc1cn2c(=O)cc(N3CCOCC3)nc2n1Cc1cccc(Cl)c1Cl', '%Inh', '%', 0),
  ('CCc1nc(-c2cccc(C)c2)c(-c2ccnc(NCc3ccccc3)c2)s1', '%Inh', '%', 0),
  ('[2H]C([2H])(c1cccc(C(F)(F)F)c1C)n1ccn2c(=O)nc(N3CCOCC3)cc12', '%Inh', '%', 16),
  ('O=C(NCCNc1ccnc(Nc2ccc(F)cc2)n1)c1cc2ccccc2s1', '%Inh', '%', 16),
  ('CCCCCc1nc2c(N)ncnc2n1CCCCC', '%Inh', '%', 0),
  ('Cc1nnc(-c2ccc3occ(-c4ccc(C(C)O)cc4)c3c2)o1 (stereo not shown)', '%Inh', '%', 31),
  ('COc1ccc(Nc2nccc(N3CCC(NC(=O)Nc4cc(C)ccc4C)C3)n2)cc1 (stereo not shown)', '%Inh', '%', 18),
  ('c1ccc(-c2cc(-c3c[nH]nc3-c3ccccn3)ccn2)cc1', '%Inh', '%', 7),
  ('N#Cc1c(N2CCOCC2)sc(-c2ccn[nH]2)c1-c1ccc(Cl)cc1', '%Inh', '%', 20),
  ('c1ccc(-c2n[nH]cc2-c2ccnc3ccccc23)nc1', '%Inh', '%', 6);
